# TARGET: rat metabotropic glutamate receptor 5 (mGluR5) (Rattus norvegicus, UniProt P31424)
# Construct: expressed in transfected cells; host or cells: HEK 293
# Sequence (P31424 21-1171 isoform P31424-2 limits assumed): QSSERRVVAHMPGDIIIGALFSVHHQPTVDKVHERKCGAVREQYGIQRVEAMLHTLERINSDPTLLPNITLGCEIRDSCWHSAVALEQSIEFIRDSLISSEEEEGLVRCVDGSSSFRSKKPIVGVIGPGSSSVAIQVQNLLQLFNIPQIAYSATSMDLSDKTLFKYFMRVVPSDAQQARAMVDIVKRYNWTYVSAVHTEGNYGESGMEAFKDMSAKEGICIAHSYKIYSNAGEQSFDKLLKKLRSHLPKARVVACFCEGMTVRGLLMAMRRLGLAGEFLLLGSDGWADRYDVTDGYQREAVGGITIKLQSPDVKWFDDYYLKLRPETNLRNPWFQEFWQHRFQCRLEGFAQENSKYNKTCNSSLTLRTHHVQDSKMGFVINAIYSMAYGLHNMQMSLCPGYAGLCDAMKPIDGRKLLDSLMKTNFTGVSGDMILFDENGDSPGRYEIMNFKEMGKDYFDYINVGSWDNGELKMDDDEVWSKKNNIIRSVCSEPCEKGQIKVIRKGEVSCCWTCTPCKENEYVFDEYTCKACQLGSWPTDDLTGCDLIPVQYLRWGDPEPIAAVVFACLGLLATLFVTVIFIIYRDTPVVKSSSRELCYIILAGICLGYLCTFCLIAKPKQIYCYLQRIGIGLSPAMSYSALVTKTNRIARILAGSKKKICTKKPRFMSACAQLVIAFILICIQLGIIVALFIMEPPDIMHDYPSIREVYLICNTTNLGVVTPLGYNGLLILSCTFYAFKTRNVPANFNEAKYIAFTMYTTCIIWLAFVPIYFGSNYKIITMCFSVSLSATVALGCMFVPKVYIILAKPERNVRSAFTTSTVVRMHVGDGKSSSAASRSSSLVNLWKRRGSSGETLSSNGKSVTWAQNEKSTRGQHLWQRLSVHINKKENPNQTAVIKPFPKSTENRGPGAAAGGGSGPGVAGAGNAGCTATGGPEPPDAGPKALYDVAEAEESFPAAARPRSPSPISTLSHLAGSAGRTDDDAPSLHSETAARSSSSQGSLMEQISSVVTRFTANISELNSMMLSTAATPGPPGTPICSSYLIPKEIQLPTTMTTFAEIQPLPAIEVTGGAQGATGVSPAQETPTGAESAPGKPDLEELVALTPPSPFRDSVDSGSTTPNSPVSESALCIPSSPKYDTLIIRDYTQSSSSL
# ASSAY REMARKS: Calcium mobilization assay (FLIPR) for negative or positive allosteric activity, HEK 293 cells
# Type: cell-based
# MEASUREMENT CONTEXT: HEK293, negative allosteric modulation, inhibition of EC80 glutamate response; read-out: FLIPR maximum inhibition
ASSAY METRIC: Emax

Reference set, count: 5
| COMPOUND | Emax |
| --- | --- |
| Cc1ccnc(C(=O)NC23CC4CC(CC(NC(=O)c5ccncn5)(C4)C2)C3)n1 | 63 to 99% |
| Cc1cc(C(=O)NC23CC4CC(CC(NC(=O)c5ccccn5)(C4)C2)C3)on1 | 63 to 99% |
| COc1cccc(C(=O)NC23CC4CC(C2)CC(NC(=O)c2cncc(C)n2)(C4)C3)c1 | 70 to 99% |
| Cc1cncc(C(=O)NC23CC4CC(C2)CC(NC(=O)c2csc(C)n2)(C4)C3)n1 | 70 to 99% |
| Cc1cccc(C(=O)NC23CC4CC(C2)CC(NC(=O)c2ccn(C)n2)(C4)C3)n1 | 63 to 99% |

-- ask What value of measured Emax is listed for `Cc1cccc(C(=O)NC23CC4CC(C2)CC(NC(=O)c2cc(C)n(C)n2)(C4)C3)n1` ?
-- reply 70 to 99%

-- ask So what does the record say about Emax for O=C(NC12CC3CC(C1)CC(NC(=O)c1cccc(N4CCC(O)C4)n1)(C3)C2)c1ccccn1 (centres unmarked) ?
-- reply 63 to 99%

-- ask Any idea what Emax was measured for `Cc1cncc(C(=O)NC23CC4CC(C2)CC(NC(=O)c2cc(Cl)ccc2F)(C4)C3)n1` ?
-- reply 70 to 99%

Data provenance: patent US8716284B2
